- Assay Overview: solvent given as SMILES
- Measurement Conditions: in C1CCCCC1
Please go through the items and note down their emission maximum.
Hi! Could you send only the number? It should be in nm, unit omitted.

Report emission maximum for CNC1=C2C=CC=[N+]2[B-](F)(F)n2cccc21 please.
463

Report emission maximum for CN(C)c1ccc(-c2c(/C=C3/C=Cc4ccccc4N3Cc3ccccc3)c(=O)c2=O)cc1 please.
427

Report emission maximum for Oc1ccccc1 please.
294.99

Report emission maximum for C[Si](C)(C)C#Cc1cccc2ccccc12 please.
336

Report emission maximum for Cc1ccc(C2=C3C=CC(C#Cc4ccccc4)=[N+]3[B-](F)(F)n3c(Cl)ccc32)cc1 please.
575

Report emission maximum for CN(C)CCNCc1c2ccccc2cc2ccccc12 please.
388

Report emission maximum for CCNc1ccc(NCC)c2c1C(=O)c1ccccc1C2=O please.
670

Report emission maximum for O=C1c2ccccc2-c2ccc(N3CCN(c4ccccc4)CC3)c3cccc1c23 please.
529

Report emission maximum for COc1ccc(C2=C(c3ccc(OC)cc3)C(C)(C)c3cc(OC)ccc32)cc1 please.
398

Report emission maximum for Cc1ccc(-c2cc(-c3ccccc3)c(C#N)c(=S)[nH]2)cc1 please.
504

Report emission maximum for CN(CC(O)c1cccc(O)c1)c1ccc([N+](=O)[O-])c(C2CC(c3cccc4ccccc34)=NN2c2ccccc2)c1 (stereo not given) please.
495

Report emission maximum for Cc1cc(C)c(B(c2c(C)cc(C)cc2C)c2cc3ccc4ccccc4c3c3c2cc(N(C)C)c2ccccc23)c(C)c1 please.
554

Report emission maximum for CC1=[N+]2C(=C(c3ccc(N4CCCCC4)cc3)c3ccc(C)n3[B-]2(F)F)C=C1 please.
519

Report emission maximum for Cc1cc(O)c(C(C)C)cc1/N=C/c1ccc(O)cc1 please.
400

Report emission maximum for COC(=O)C(Cc1ccc2oc(-c3ccc(N(C)C)cc3)nc2c1)NC(=O)OC(C)(C)C (stereo not given) please.
377

Report emission maximum for CN(C)CCN(Cc1c2ccccc2cc2ccccc12)c1ccc([N+](=O)[O-])cc1[N+](=O)[O-] please.
391

Report emission maximum for F[B-]1(F)N(c2ccccc2)C=Cc2cccc[n+]21 please.
543

Report emission maximum for COc1ccc(C2=C3C=CC(C)=[N+]3[B-](F)(F)n3c(C)ccc32)cc1 please.
521

Report emission maximum for c1ccc(-c2nn(-c3ccccc3)c3nc4ccc(N(c5ccccc5)c5cccc6ccccc56)cc4cc23)cc1 please.
484.73

Report emission maximum for O=C1Nc2ccccc2/C1=C/C(=O)c1ccc(O)cc1 please.
384

Report emission maximum for CCCN1C(=O)c2c3c(c4c(c2C1=O)CCc1cc(-c2ccc(N(C)C)cc2)c(OC)cc1-4)-c1cc(OC)c(-c2ccc(N(C)C)cc2)cc1CC3 please.
511

Report emission maximum for F[B-]1(F)n2c(Nc3cccc4cccnc34)ccc2C(c2ccccc2)=C2C=CC(Cl)=[N+]21 please.
580

Report emission maximum for CCC1=C(C)C2=Cc3cccn3[B-](F)(F)[N+]2=C1C please.
517.5

Report emission maximum for CCCCCCC(CCCCCC)n1c(=O)c2c3ccc4cccc5c6cccc7ccc(c2c1=O)c(c76)c3c45 please.
471

Report emission maximum for CN(C)c1ccc(/C=C/c2nc3ccccc3s2)cc1 please.
447

Report emission maximum for N#Cc1cc(-c2ccccc2)c(N2c3ccccc3Oc3ccccc32)c(-c2ccccc2)c1 please.
455

Report emission maximum for O=C1Cc2cc3c(cc2CCCc2ccc(cc2)CCC3)CC(=O)Cc2ccc(c3nsnc23)C1 please.
501

Report emission maximum for c1ccc2c(-c3ccc4sc5ccccc5c4c3)c3ccccc3cc2c1 please.
399.14

Report emission maximum for CC(C)(C)c1ccc(-c2ccc(C(C)(C)C)cc2)cc1 please.
312

Report emission maximum for COc1ccc2c3c(c4ccc(OC)cc4c2c1)C(C)(C)c1ccc2ccccc2c1-3 please.
396

Report emission maximum for CCOC(=O)CCCn1c(C(=O)OC)c(C)c2c(=O)n3c(cc21)C(CC)=C(C)C3=O please.
434

Report emission maximum for CCc1ccc(/C=N/c2cc(C(C)C)c(O)cc2C)cc1 please.
406

Report emission maximum for Cc1ccc2cc(C)ccc2c1 please.
342.82

Report emission maximum for C/C(=C\c1ccc(Cl)cc1)c1nc2ccccc2s1 please.
390

Report emission maximum for CN(C)c1ccc(C(=O)c2ccccc2)cc1 please.
462

Report emission maximum for C[Si](C)(C)c1cccc2ccccc12 please.
328

Report emission maximum for Oc1ccc2ccccc2c1 please.
350.75

Report emission maximum for Cc1ccc(/C=N/c2cc(C(C)C)c(O)cc2C)cc1 please.
400

Report emission maximum for CC1=N/C(=C\c2ccccc2N)C(=O)N1C please.
451

Report emission maximum for Cc1ccc2ccccc2c1 please.
338.75
